# Lookup of reported folding stability dG keyed by entry
B1: EEHEE_rd3_1049 (parent)
chain: TTVKLGDIKVTFDNPEKAKKYAQKLAKIYQLTVHVHGDTIHVK

variants of: B1; assay: folding stability dG (cDNA display proteolysis); higher = more stable; conditions: PBS, room temperature
Hi! Could you send only the number? It should be in kcal/mol, unit omitted.

Past entries and their recorded results:
In [3]: df
Out[3]:
   mutation_list     reported_property  unit_string  assay_result
0           K24V  folding stability dG     kcal/mol          1.96
1            D7E  folding stability dG     kcal/mol          1.97
2           A22P  folding stability dG     kcal/mol        -0.681
3            T2Q  folding stability dG     kcal/mol          1.28

Entry under test: K4M . Its folding stability dG was 2.47

Lookup result for K43W ; measured folding stability dG: 2.48

Measured folding stability dG, E16I : 1.98

Entry K27L , folding stability dG reported as 2.1

// folding stability dG lookup, variant = A18L , result: 0.902

The recorded folding stability dG for entry H36N equals 2.04

folding stability dG reading for D38G : 1.6

According to the records, this variant Q30N displays folding stability dG of 2.58

Reported folding stability dG for L5N was 0.735

A26G yielded folding stability dG of 0.898

Input N14I . Output folding stability dG: 1.22

Sample T32Y ; folding stability dG observed: 1.69

For reference, reported folding stability dG for P15W stands at 2.47

A18C yielded folding stability dG of 2.03

Kindly note the recorded folding stability dG for A22K , which is 0.531

Attribution: the MegaScale stability set (Tsuboyama et al. 2023)
